System: HeLa CD4 LTR β-gal cells
experiment.summary: Compound toxicity in attachment assay (MTS dye reduction, sister plates)
Assay type: cell-based
reported.conditions: Experiment 1; pretreat 0 h; read-out: TC50 (the source's name)
assay.readout: CC50

Reported CC50 of CC(C)=CCCC1(C)CCc2c(O)cc(C(C)(C)CCCC(C)C)cc2O1 (stereo not shown) : > 50 µM

====

Tested on: HIV-1
experiment.summary: HeLa CD4 LTR β-gal HIV-1 attachment assay
Format: cell-based
reported.conditions: Human immunodeficiency virus 1, HeLa, Experiment 1; pretreat 0 h; read-out: IC50
Quick reference: IC50 of the listed items.

COc1cc(-c2ccc(/N=N/c3ccc4c(S(=O)(=O)O)cc(S(=O)(=O)O)c(N)c4c3O)c(OC)c2)ccc1/N=N/c1ccc2c(S(=O)(=O)O)cc(S(=O)(=O)O)c(N)c2c1O [CSB, Chicago Sky Blue, reference compound] yielded IC50 of 1.1 µg/mL

Measured IC50 of COc1cc(C(C)(C)CCCC(C)C)cc(OC)c1OC : > 50 µM

====

Test system: HeLa CD4 LTR β-gal cells
experiment.summary: Compound toxicity in attachment assay (MTS dye reduction, sister plates)
Type: cell-based
reported.conditions: Experiment 1; pretreat 4 h; read-out: TC50 (the source's name)
assay.readout: CC50

Short answer for CC(C)=CCCC1(C)CCc2c(O)cc(C(C)(C)CCCC(C)C)cc2O1 (stereo not shown) [IG-08] : CC50 was > 50 µM

====

Tested on: HeLa CD4 LTR β-gal cells
experiment.summary: Compound toxicity in attachment assay (MTS dye reduction, sister plates)
Format: cell-based
reported.conditions: Experiment 1; pretreat 24 h; read-out: TC50 (the source's name)
assay.readout: CC50

Entry CC(C)=CCCC1(C)CCc2c(O)cc(C(C)(C)CCCC(C)C)cc2O1 (stereo not shown) [IG-08] , CC50 reported as > 50 µM

====

System: PBMCs
experiment.summary: PBMC cytotoxicity in time-of-addition assay
Format: cell-based, Human
reported.conditions: −4 h pre (relative to infection)
Listed here are compounds together with their documented TC50.

Below, 3 compounds whose answers are already recorded.
Given item Cc1cn([C@H]2C[C@H](N=[N+]=[N-])[C@@H](CO)O2)c(=O)[nH]c1=O [AZT, reference compound] , the value recorded as its TC50 is >4 µM

Field TC50 (entry COc1cc(C(C)(C)CCCC(C)C)cc(OC)c1OC ) reads >100 µM

// TC50 lookup, compound = C=C(C)[C@@H]1CCC(C)=C[C@H]1c1c(O)cc(CCCCC)cc1O [Cannabidiol, reference compound] , result: >100 µM

Further cases:
GET /value?item= CC(C)=CCCC1(C)CCc2c(O)cc(C(C)(C)CCCC(C)C)cc2O1 (stereo not shown) &field=TC50 returns >100 µM

====

Tested on: HIV-1 strain RoJo
experiment.summary: PBMC time-of-addition assay (RT in cell-free supernatant at 6 days)
Assay type: cell-based
reported.conditions: pre-treat 24 h prior to infection
assay.readout: pIC50
Bear in mind: pIC50 is minus log10 of a mol/L concentration; give just that figure.

pIC50 reported for this compound Cc1cn([C@H]2C[C@H](N=[N+]=[N-])[C@@H](CO)O2)c(=O)[nH]c1=O [AZT, reference compound] : 8.51
